Hey, just so you know, these numbers are from ChEMBL document CHEMBL3988442.

# Species on record: Homo sapiens
# Method description: To identify inhibition of the IFN signalling (Jak-Stat) pathway via expression of an eGFP reporter gene under the control of an IFN-stimulated response element (ISRE) containing MxA promoter.
# Type: functional
# Design: scale not given: direction of the effect not stated beside the values
# Assay conditions: 30 µM
For each entry below, report its Percent Effect value.
Respond numerically; units are % and should not be typed.

Quickly give me recorded Percent Effect for CC(C)(C#N)C(=O)N1CCCC(c2cc(C(F)(F)F)[nH]n2)C1 (centres undefined)
14.8

Quickly give me recorded Percent Effect for CCN(CC)C(=O)c1nnc2ccc(N3CCOCC3)cc2n1
11.4

Quickly give me recorded Percent Effect for COc1ccc(CN2CCC3(CC2)NC(=O)CC3c2ccncc2)cc1 (centres undefined)
5.38

Quickly give me recorded Percent Effect for CN(C)CC1CN(c2ccc(C#N)cn2)CCO1 (centres undefined)
-1.95

Quickly give me recorded Percent Effect for COC(=O)CC(c1cnn(C)c1)c1oc(C)cc(=O)c1O (centres undefined)
8.46

Quickly give me recorded Percent Effect for Cn1cnnc1S(=O)(=O)C1CCN(S(=O)(=O)c2ccc(F)c(Cl)c2)CC1
8.21

Quickly give me recorded Percent Effect for CCOc1cc(CNC(=O)N2CCC(Cc3cnn(C)c3)C2)ccn1 (centres undefined)
4.43

Quickly give me recorded Percent Effect for COCCCNC(=O)N1CCCC(c2nncn2C)C1 (centres undefined)
5.55

Quickly give me recorded Percent Effect for c1ncn(CC2CCCN2Cc2cn3ccsc3n2)n1 (centres undefined)
-3.77

* * *

For each entry below, report its Percent Effect value.
# Tested on: Trypanosoma cruzi
# Method description: Trypanosoma cruzi phosphomannomutase and mannose-1-phosphate guanylyltransferase assay
# Assay type: functional
# Design: scale not given: direction of the effect not stated beside the values
# Assay conditions: 10 µM
Respond numerically; units are % and should not be typed.

Quickly give me recorded Percent Effect for COC(=O)c1cc(OCC2CCC2)cc(C(=O)N[C@H]2CC[C@H](O)CC2)c1
-5.09

Quickly give me recorded Percent Effect for Cc1cnc(N2CC3(CCN(C(=O)c4ccoc4)C3)C2)nc1
-3.64

Quickly give me recorded Percent Effect for Cc1cnn(CC2CCCN2C(=O)CCc2c(C)noc2Cl)c1 (stereo not drawn)
7.11

Quickly give me recorded Percent Effect for CNC(=O)C1CCC(NC(=O)N(C)Cc2c(C)noc2C)CC1 (stereo not drawn)
11

Quickly give me recorded Percent Effect for Cc1nn(C)c(C)c1C1CCCN1C(=O)CCc1cscn1 (stereo not drawn)
0.467

Quickly give me recorded Percent Effect for Cc1cc(CNc2cc(Cl)ccc2Cl)no1
4.79

Quickly give me recorded Percent Effect for Cc1nn(C)c(C)c1C1CCCN1Cc1cccc(C(N)=O)c1 (stereo not drawn)
-4.63

Quickly give me recorded Percent Effect for Cc1cnc(CN(C)C2CCN(Cc3nc4ccccc4n3C)C2)o1 (stereo not drawn)
3.21

Quickly give me recorded Percent Effect for CC(O)CC(C)(C)CNC(=O)NCc1cccc(-n2ccnc2)c1 (stereo not drawn)
-2.83

Quickly give me recorded Percent Effect for CCNC(=O)c1ccc(N2CCCC(c3nccn3C(C)C)C2)nc1 (stereo not drawn)
5.16

Quickly give me recorded Percent Effect for CCc1ncncc1C(=O)N1CCCN(Cc2ccc(C)cc2)CC1
-6.44

Quickly give me recorded Percent Effect for CCc1n[nH]c(C2CN(C(=O)c3ncoc3C(C)C)CCO2)n1 (stereo not drawn)
-0.746

Quickly give me recorded Percent Effect for Cc1ccc(CNC(=O)CN2CCCC(Cn3cncn3)C2)s1 (stereo not drawn)
3.61

Quickly give me recorded Percent Effect for Cc1nc([C@@H]2C[C@@H]3CCN(C(=O)Cc4ccsc4)C[C@H]3O2)no1
-3.21

Quickly give me recorded Percent Effect for Cc1ccc2oc(C(=O)N3CCC(C(=O)N4CCCC4)CC3)cc2n1
2.35

Quickly give me recorded Percent Effect for CC(NC(=O)NCC1(c2ccccc2)CCC1)c1nncn1C (stereo not drawn)
-5.7

Quickly give me recorded Percent Effect for Cc1cccc(CN2C(=O)CO[C@@H]3CN(Cc4nccn4C)C[C@H]32)c1
3.91

Quickly give me recorded Percent Effect for O=C1COc2c(cccc2C(=O)N2CCCCC2Cn2cccn2)N1 (stereo not drawn)
-2.84

Quickly give me recorded Percent Effect for Cc1ccc(CN2CCc3c(C(=O)N(C)C)nn(C)c3C2)s1
5.95

Quickly give me recorded Percent Effect for Cc1ccccc1N1CCN(C(=O)c2ccc[nH]2)C(C)C1 (stereo not drawn)
5.92

Quickly give me recorded Percent Effect for Cc1nccc(-c2cccc(NCC(=O)N3CCc4sccc4C3)c2)n1
4.76

Quickly give me recorded Percent Effect for CC1CCN(C(=O)c2cccc3ncccc23)CC1
-1.21

Quickly give me recorded Percent Effect for Cc1ncsc1-c1nnc(C2CCN(CC3CCCCC3)CC2)o1
-1.97

Quickly give me recorded Percent Effect for CCCn1nc2c(cc1=O)CN(CC(=O)Nc1nnc(C)s1)CC2
-3.92

Quickly give me recorded Percent Effect for O=C(CCc1cscn1)N1CCCC(n2ccnc2)C1 (stereo not drawn)
-2.36

Quickly give me recorded Percent Effect for Cc1nc(C)n(CC2CCCN(CCC(=O)N3CCCCC3)C2)n1 (stereo not drawn)
-4.21

Quickly give me recorded Percent Effect for CC(C)CC(CNC(=O)NCc1cc[nH]n1)N1CCOCC1 (stereo not drawn)
7.04

Quickly give me recorded Percent Effect for c1ccc2oc(N3CCCCC3Cn3cncn3)nc2c1 (stereo not drawn)
11.4

Quickly give me recorded Percent Effect for CCOCC1CC2(CCN(C(=O)c3ccccc3F)CC2)CO1 (stereo not drawn)
-3.41

Quickly give me recorded Percent Effect for NCc1cn(-c2ccccc2C(=O)NCc2ccccc2)cn1
-0.592

Quickly give me recorded Percent Effect for C[C@]1(O)CCN(Cc2cncs2)C[C@@H]1Oc1cccc(F)c1
-4.93

Quickly give me recorded Percent Effect for CN(C)C(=O)COC[C@]12COC[C@H]1CN(Cc1ccoc1)C2
5.77

Quickly give me recorded Percent Effect for CCc1csc(C2CCCN(C(=O)c3cnn(CC)c3)C2)n1 (stereo not drawn)
-1.46
